assay: protein stability index of a GFP-peptide fusion (GPS, HEK-293T) (PSI 1-6); higher = more stable; conditions: treatment: MLN4924 1 uM, 8 h; c terminus: a fixed tail appended;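 further: 24-mer peptide tiles fused after GFP, lentivirally expressed, FACS-sorted into six equal bins by GFP/DsRed ratio, decoded by Illumina sequencing, PSI is the read-weighted mean bin number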
Attribute measured: protein stability index
Lab note: record the figure alone, no unit after it.

Take a look at these entries with their results.
{"Query sequence": "DAHLVLDGEEIPVQKNILAAASPY [GAN]", "Obs value": 4.16}
{"Query sequence": "KEKSSTVPIPTVNQYLYFLFAPTL [SOAT1]", "Obs value": 2.17}
{"Query sequence": "GSTNLTGLFFPPQLNGTANDTAGP [NFE2L1]", "Obs value": 4}
{"Query sequence": "HFERRDNMNDNFLEGEEENELTLN [CHGB]", "Obs value": 5.61}
{"Query sequence": "AFACQVAGCCQVFDALDDYEHHYH [ZNF511]", "Obs value": 2.74}

Exercise: Would you mind telling me what protein stability index value was observed for VVAMARKLQDVFEMRFAKMPDEPV [BRD3] ?
Solution: 2.64

Exercise: Would you mind telling me what protein stability index value was observed for SDTTPLPSWAALNSSTWGSLKQAL [SNX8] ?
Solution: 2.94

----------
test: protein stability index of a GFP-peptide fusion (GPS, HEK-293T) (PSI 1-6); higher = more stable; settings: treatment: MLN4924 1 uM, 8 h; c terminus: a fixed tail appended
Attribute measured: protein stability index
Lab note: record the figure alone, no unit after it.

Take a look at these entries with their results.
{"Query sequence": "LDYYKTGIIRCPDGISIPELREAC [BTBD10]", "protein stability index": 2.5}
{"Query sequence": "LPPPSALKKGSKEKQADFLDKQMS [NFE2L1]", "protein stability index": 4.91}
{"Query sequence": "LIPKTWYSAEQFCVSRNSHLTSVT [CD207]", "protein stability index": 2.19}

Exercise: Would you mind telling me what protein stability index value was observed for AVLGRYVPGLLLSYLMLVTVMMWP [RETREG3] ?
Solution: 3.1

Exercise: Would you mind telling me what protein stability index value was observed for CNDLFKVNPFQLQQFRADPSTASL [TIAF1] ?
Solution: 2.78

Exercise: Would you mind telling me what protein stability index value was observed for SLQRWEHLKKVASRYQNNIKNDKY [PRIM1] ?
Solution: 2.91

Exercise: Would you mind telling me what protein stability index value was observed for TADISSHFQEAIDFIDCVREKGGK [DUSP5] ?
Solution: 4.7

----------
test: protein stability index of a GFP-peptide fusion (GPS, HEK-293T) (PSI 1-6); higher = more stable; conditions: treatment: DMSO; c terminus: a fixed tail appended
Classification field: 1.0 = protein stability index at or over 3; 0.0 = protein stability index under 3.

Solved cases below.
{"Query sequence": "GTARYMSINTHLGKEQSRRDDLEA [CSNK1G3]", "Class assignment": 1.0}
{"Query sequence": "YQRWIYRVDPTRVNEFGMSGEDPT [CLPTM1]", "Class assignment": 0.0}
{"Query sequence": "FNFVSTPKCSCGQLAAVHLSKSRT [RNF180]", "Class assignment": 0.0}
{"Query sequence": "VPERLLVVLDMEEGTLGYAIGGTY [SPSB2]", "Class assignment": 0.0}
{"Query sequence": "PEPVYKLTQRQVNITVQKKVSQWW [HACD3]", "Class assignment": 0.0}
{"Query sequence": "TKFGLFTPGSRIESILMSLPLTAR [CPOX]", "Class assignment": 0.0}

Exercise: Could you please find out whether KYDVKKVEEVVYDLSIRGFNKETA [TSN] has protein stability index that meets 3 or exceeds it?
Solution: 1.0

Exercise: Could you please find out whether HCTTVDGQRQLMVPARDGTSCKLT [ADAMTSL2] has protein stability index that meets 3 or exceeds it?
Solution: 1.0

Exercise: Could you please find out whether LTIRESILINNGSRIKGWWVFHHY [TMEM120A] has protein stability index that meets 3 or exceeds it?
Solution: 1.0

Exercise: Could you please find out whether HCPESGEEAVILLEDLERELDEPQ [ZSCAN9] has protein stability index that meets 3 or exceeds it?
Solution: 1.0

Exercise: Could you please find out whether ALLSCCLTVVSFYQVAALQGDLAS [TNFSF13B] has protein stability index that meets 3 or exceeds it?
Solution: 1.0

Exercise: Could you please find out whether KMPVYSGSRPACQLQVPTLRQQCA [ELOA2] has protein stability index that meets 3 or exceeds it?
Solution: 1.0

Exercise: Could you please find out whether APRGTPDPGLGEGPALWLRSTCVY [PLEKHN1] has protein stability index that meets 3 or exceeds it?
Solution: 0.0

Exercise: Could you please find out whether FMPQGAGGHTREARIQTLEPDNWM [RSAD1] has protein stability index that meets 3 or exceeds it?
Solution: 1.0

----------
assay: protein stability index of a GFP-peptide fusion (GPS, HEK-293T) (PSI 1-6); higher = more stable; details: treatment: DMSO; c terminus: a fixed tail appended
Attribute measured: protein stability index
Lab note: record the figure alone, no unit after it.

{"Query sequence": "LKDFTLNETVNSIFAQGAPRSSLA [ADAMTSL2]", "Attribute measured": "protein stability index", "Obs value": 3.01}
{"Query sequence": "VHEFCAGRECQPRWETSSWSECSR [ADAMTSL2]", "Attribute measured": "protein stability index", "Obs value": 2.42}
{"Query sequence": "EMKEFSSQLAGQVNVEMDAAPGVD [KRT15]", "Attribute measured": "protein stability index", "Obs value": 5.29}
{"Query sequence": "AKVLTLSDDLERTIEERVNILFDF [EIF5]", "Attribute measured": "protein stability index", "Obs value": 2.33}
{"Query sequence": "AWGPGTLAAAPEGLEDAGLDPHFV [TEX19]", "Attribute measured": "protein stability index", "Obs value": 4.31}
{"Query sequence": "ITNQVVAQVDGAAMFAADPKKPIG [RAD51]", "Attribute measured": "protein stability index", "Obs value": 4.58}
{"Query sequence": "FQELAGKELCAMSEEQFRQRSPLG [SPDEF]", "Attribute measured": "protein stability index", "Obs value": 3.1}
{"Query sequence": "PEAKVLHTKRLYRAVVEAVHRLDL [SMG5]", "Attribute measured": "protein stability index", "Obs value": 2.19}

Exercise: Would you mind telling me what protein stability index value was observed for SDTTPLPSWAALNSSTWGSLKQAL [SNX8] ?
Solution: 2.7

Exercise: Would you mind telling me what protein stability index value was observed for PPPPPPAQTFLFQGQPVVNRPLSL [TRADD] ?
Solution: 3.71

Exercise: Would you mind telling me what protein stability index value was observed for DDKHYGGFTNKQLQSGQEYVFFVL [PTPRD] ?
Solution: 2.64

Exercise: Would you mind telling me what protein stability index value was observed for KYPGPQAEGDSEGLSQGLVDREKG [CHGA] ?
Solution: 5.32

Exercise: Would you mind telling me what protein stability index value was observed for VVHDWLYSYVYQDGLRLLGARARG [SOAT2] ?
Solution: 2.46

----------
test: protein stability index of a GFP-peptide fusion (GPS, HEK-293T) (PSI 1-6); higher = more stable; settings: treatment: MLN4924 1 uM, 8 h; c terminus: a fixed tail appended
Attribute measured: protein stability index
Lab note: record the figure alone, no unit after it.

Take a look at these entries with their results.
{"Query sequence": "MDVGETAMVTADSKYCYGPQGSRS [FKBP8]", "protein stability index": 4.51}
{"Query sequence": "SLLVLIEPVAAGSGIPEVKCYLNG [CLCN6]", "protein stability index": 2.44}
{"Query sequence": "PWCPHLVAVCPIPAAGLDVTQPCG [HDAC6]", "protein stability index": 2.67}

Exercise: Would you mind telling me what protein stability index value was observed for SPDSPKGSSETETEPPVALAPGPA [ESRRA] ?
Solution: 5.63

Exercise: Would you mind telling me what protein stability index value was observed for SSGQCRRRKRTYWNDSCGEDMEAS [WEE1] ?
Solution: 4.52

Exercise: Would you mind telling me what protein stability index value was observed for LTINPAKRITASEALKHPWICQRS [CAMK2D] ?
Solution: 2.72

Exercise: Would you mind telling me what protein stability index value was observed for VKEGGSYGFSLKTVQGKKGVYMTD [PDZK1] ?
Solution: 3.08

----------
assay: protein stability index of a GFP-peptide fusion (GPS, HEK-293T) (PSI 1-6); higher = more stable; details: treatment: DMSO; c terminus: a fixed tail appended
Class (required): determined from protein stability index; valid ranges are lower (below 3), middle (3 to below 4), upper (4 or more)

{"Query sequence": "EGDATRDPGPEPEEEPGVRNGMAS [PSD2]", "Class assignment": "upper"}
{"Query sequence": "VNPWIIIGGVATVVCQPNEFIMPD [SEPHS2]", "Class assignment": "lower"}
{"Query sequence": "EFMKDRLYFATLRNRPKSTVNTHY [CDC14A]", "Class assignment": "lower"}
{"Query sequence": "PDEANVGKHPKDKTEDENKQSFLD [TOR1AIP2]", "Class assignment": "upper"}
{"Query sequence": "SNHVDDFTTFRGTELSFLVTTHQP [EDNRA]", "Class assignment": "lower"}
{"Query sequence": "WPARVLDISLGQKEDGEPSWREAK [PWWP2B]", "Class assignment": "upper"}

Exercise: Which class does LSKILAKLERLKQQNEDLRRMAES [FUT8] fall in?
Solution: lower

Exercise: Which class does TSFFDSDEDDSTSRFSSSTEQSSA [DVL3] fall in?
Solution: upper

Exercise: Which class does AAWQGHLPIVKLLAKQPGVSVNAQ [RIPK4] fall in?
Solution: lower

Exercise: Which class does YVDIHTGLSGSGVAFVCAFSEALA [PYCR3] fall in?
Solution: lower

Exercise: Which class does SPEARDARSPSGPSGSLENGTKAD [TRIM29] fall in?
Solution: upper

Exercise: Which class does NESRYMIYEFWENSSVWNSHLQTN [NECAB1] fall in?
Solution: lower

Exercise: Which class does QSWNNQAWNSPFYNCGEESLQSCM [NANOGP8] fall in?
Solution: lower

Exercise: Which class does EEANADLEVKIHDWYQKQTPTSPE [KRT15] fall in?
Solution: upper

These measurements were taken from the supplement of paper PMC10567573.
